Assignment: determine reported INHIBITION for the given compounds.
Tested on: Plasmodium berghei
Assay: Screen against P. berghei liver stage (PbLuc), transformed with Luciferase, at 10uM
Assay type: functional, HepG2
Conditions: tested at 10 uM
Hit rate of the full screen: of about 69,000 compounds, about 8,600 (12%) showed an effect of 50% or more. What follows is part of a selection rich in strong results, with near analogues and random picks from the rest.
Please reply with the bare figure in % and do not write the unit itself.

Ask: So what's the measured INHIBITION for this one? COc1ccc(CC(=O)N2CC[C@@H]3NC(=O)CC[C@@H]32)cc1
Result: -6.46

Ask: So what's the measured INHIBITION for this one? Cc1ccc(CC(=O)N2CC[C@@H]3NC(=O)CC[C@@H]32)cc1
Result: 58.5

Ask: So what's the measured INHIBITION for this one? CNC(=O)N1CCN(C(=O)N(C)C)CC2(CC(=O)N(C)C2)C1 (configuration not stated)
Result: 26.3

Ask: So what's the measured INHIBITION for this one? CC1CCCCN1c1nc2c(c(=O)[nH]1)CCN(Cc1ccc(O)cc1)C2 (configuration not stated)
Result: 10

Ask: So what's the measured INHIBITION for this one? CCc1nnc2n1CCN(C(=O)c1nc(-c3ccco3)sc1C)C2
Result: 21.5

Ask: So what's the measured INHIBITION for this one? CC1CCCCN1c1nc2c(c(=O)[nH]1)CCN(Cc1ccccc1O)C2 (configuration not stated)
Result: 23.4

Ask: So what's the measured INHIBITION for this one? Cc1ccsc1CN1CCc2c(nc(N3CCCCC3C)[nH]c2=O)C1 (configuration not stated)
Result: 85.7
